The measurements presented in this section are drawn from paper PMC6271202.

Recorded log10 IC50 for the following compounds
# System: rat skeletal muscle cell (L-6)
# procedure_details: Cytotoxicity assay (Alamar Blue)
# Format: cell-based
# condition_summary: Myoblast; L-6 rat skeletal myoblasts; 70 h incubation; read-out: IC50 (µM) L-6
property: log10 IC50 (log10 of the value in µM)

[[record]]
compound = "CC1=C(/C=C/c2cc(=O)c3ccccc3n2CCBr)C(C)(C)CCC1 [Compound 21]"
property = "log10 IC50"
measured = 1.52

[[record]]
compound = "CCCOc1ccc(/C=C/c2cc(=O)c3cc(Cl)ccc3n2C)cc1 [Compound 10b]"
property = "log10 IC50"
measured = 2.21

[[record]]
compound = "CCCCCCCCCCC#CCCc1cc(=O)c2ccccc2n1C [Compound 36a]"
property = "log10 IC50"
measured = 1.12

[[record]]
compound = "Cn1c(CCCCC=C2CCCCCC2)cc(=O)c2ccccc21 [Compound 31]"
property = "log10 IC50"
measured = 1.66

[[record]]
compound = "CCCCCCCCCC=CCCCCc1cc(=O)c2ccccc2n1C [Compound 29]"
property = "log10 IC50"
measured = 1.12


====

# Test system: T. b. rhodesiense STIB 900 strain
# procedure_details: Antitrypanosomal assay in vitro (Alamar Blue)
# Type: cell-based, Trypanosoma brucei rhodesiense
# condition_summary: Trypanosoma brucei; bloodstream form T. b. rhodesiense STIB 900; 70 h incubation; read-out: IC50 (µM) STIB900
property: IC50 (µM)

[[record]]
compound = "CCCOc1ccc(/C=C/c2cc(=O)c3cc(Cl)ccc3n2C)cc1 [Compound 10b]"
measured = 21.9

[[record]]
compound = "CCCCCCCCCCCCCCCc1cc(=O)c2ccccc2n1C"
measured = 42.4

[[record]]
compound = "Cn1c(/C=C/CCCCCCCCCBr)cc(=O)c2ccccc21"
measured = 1.07


====

# Test system: rat skeletal muscle cell (L-6)
# procedure_details: Cytotoxicity assay (Alamar Blue)
# Assay type: cell-based
# condition_summary: Rattus norvegicus, Myoblast, 70 h, read-out: IC50 (µM) L-6
# Description: The drug sensitive strain of P. falciparum (NF54) was obtained from Schipol Airport, The Netherlands. […] L-6 cells were derived from rat skeletal myoblasts. 96-well plates were seeded with 100 µL of RPMI 1640 medium supplemented with 1% L-glutamine and 10% fetal bovine serum, and rat skeletal muscle cell (L-6) (4 × 10^3/mL). […] The plates were incubated for 70 h and assessed microscopically for cell growth. […]
property: IC50 (µM)

[[record]]
compound = "COc1cc([C@@H]2c3cc4c(cc3[C@H](O)[C@H]3COC(=O)[C@H]23)OCO4)cc(OC)c1OC [Podophyllotoxin, reference compound]"
units_of_measure = "µM"
measured = 0.017


====

# Tested on: rat skeletal muscle cell (L-6)
# procedure_details: Cytotoxicity assay (Alamar Blue)
# Format: cell-based
# condition_summary: Myoblast; L-6 rat skeletal myoblasts; 70 h incubation; read-out: IC50 (µM) L-6
compounds and their reported IC50
property: IC50 (µM)

[[record]]
compound = "CCCCCOc1ccc(/C=C/c2cc(=O)c3ccccc3n2CCBr)cc1"
system_tested = "rat skeletal muscle cell (L-6)"
property = "IC50"
measured = 42.4

[[record]]
compound = "CCCCCCCCCCCCC#Cc1cc(=O)c2ccccc2n1C"
system_tested = "rat skeletal muscle cell (L-6)"
property = "IC50"
measured = 15.8

[[record]]
compound = "C#CCn1c(/C=C/CCCCCCCCCCCC)cc(=O)c2ccccc21 [Compound 18d]"
system_tested = "rat skeletal muscle cell (L-6)"
property = "IC50"
measured = 24.7

[[record]]
compound = "CN1CCN(CCCCCCCCC/C=C/c2cc(=O)c3ccccc3n2C)CC1"
system_tested = "rat skeletal muscle cell (L-6)"
property = "IC50"
measured = 32.5

[[record]]
compound = "CCCCCCCCCC/C=C/c1cc(=O)c2ccccc2n1CCBr [Compound 18b]"
system_tested = "rat skeletal muscle cell (L-6)"
property = "IC50"
measured = 38.4

[[record]]
compound = "CCCCCC/C=C\\CCc1cc(=O)c2ccccc2n1C"
system_tested = "rat skeletal muscle cell (L-6)"
property = "IC50"
measured = 49.5

[[record]]
compound = "CCCCCCCCCCCCCCCc1cc(=O)c2ccccc2n1C"
system_tested = "rat skeletal muscle cell (L-6)"
property = "IC50"
measured = 101

[[record]]
compound = "CCCCCCCCCCCC/C=C/c1cc(=O)c2ccccc2n1CCCC [Compound 18g]"
system_tested = "rat skeletal muscle cell (L-6)"
property = "IC50"
measured = 13.3

[[record]]
compound = "Cn1c(-c2ccc(CCCCCCBr)cc2)cc(=O)c2ccccc21"
system_tested = "rat skeletal muscle cell (L-6)"
property = "IC50"
measured = 6.63

[[record]]
compound = "C=CCn1c(/C=C/CCCCCCCCCCCC)cc(=O)c2ccccc21 [Compound 18e]"
system_tested = "rat skeletal muscle cell (L-6)"
property = "IC50"
measured = 14

[[record]]
compound = "CCCCCCCCCCC#CCCc1cc(=O)c2ccccc2n1CC [Compound 36b]"
system_tested = "rat skeletal muscle cell (L-6)"
property = "IC50"
measured = 13.6

[[record]]
compound = "Cn1c(-c2ccc(CCCCCCCCCCN3CCCCC3)cc2)cc(=O)c2ccccc21"
system_tested = "rat skeletal muscle cell (L-6)"
property = "IC50"
measured = 9.63

[[record]]
compound = "CCCOc1ccc(/C=C/c2cc(=O)c3ccccc3n2CCBr)cc1 [Compound 10a]"
system_tested = "rat skeletal muscle cell (L-6)"
property = "IC50"
measured = 25.8

[[record]]
compound = "Cn1c(/C=C/CCCCCCCCCBr)cc(=O)c2ccccc21"
system_tested = "rat skeletal muscle cell (L-6)"
property = "IC50"
measured = 36.3

[[record]]
compound = "CCCCCCCCCCCC/C=C/c1cc(=O)c2ccccc2n1CCC [Compound 18f]"
system_tested = "rat skeletal muscle cell (L-6)"
property = "IC50"
measured = 13

[[record]]
compound = "CCCCCCCCC/C=C/c1cc(=O)c2ccccc2n1C [Compound 18a]"
system_tested = "rat skeletal muscle cell (L-6)"
property = "IC50"
measured = 44.7

